biological target: CCK receptor (Brain) (Cavia porcellus, UniProt H0VZC5); construct: the cortex was removed and homogenized in 25 mL ice-cold 0.32M sucrose; from tissue; host or cells: guinea pig cortex (male Hartley), P2 membrane pellet; test: biochemical; assay type: binding, guinea pig (male Hartley), cortex; conditions: 125I-CCK-8 50 pM, guinea pig cortex membranes, 25° C., 2 hours; read-out: IC50, 125I-CCK Brain
Sequence (H0VZC5 1-426): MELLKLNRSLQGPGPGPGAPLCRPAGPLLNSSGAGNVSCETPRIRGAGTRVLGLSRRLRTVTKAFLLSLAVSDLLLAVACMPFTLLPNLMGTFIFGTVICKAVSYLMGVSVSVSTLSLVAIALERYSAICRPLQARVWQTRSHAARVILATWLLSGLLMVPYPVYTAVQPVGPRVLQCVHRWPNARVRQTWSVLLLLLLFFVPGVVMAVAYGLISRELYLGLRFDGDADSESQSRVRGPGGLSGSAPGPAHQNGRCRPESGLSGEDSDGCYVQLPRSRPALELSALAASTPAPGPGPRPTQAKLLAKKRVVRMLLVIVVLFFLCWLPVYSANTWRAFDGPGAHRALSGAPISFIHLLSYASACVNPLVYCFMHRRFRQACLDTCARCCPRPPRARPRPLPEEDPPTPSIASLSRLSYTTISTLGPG
Reported metric: IC50 (nM)
Could you give me the number in nM? Just the number is fine.

Below are worked cases with known answers.
| Compound | Measured target | Reported metric | Result |
| --- | --- | --- | --- |
| CN1C(=O)C(NC(=O)Nc2cccc(C(=O)NS(=O)(=O)C(C)(C)C)c2)N=C(C2CCCC2)c2ccccc21 (racemic) | CCK receptor (Brain) (Cavia porcellus, UniProt H0VZC5) | IC50 | 0.56 |
| CN1C(=O)C(NC(=O)Nc2cccc(C(=O)NS(=O)(=O)C(C)(C)C)c2)N=C(C2CCCCC2)c2ccccc21 (racemic) | CCK receptor (Brain) (Cavia porcellus, UniProt H0VZC5) | IC50 | 0.22 |

Req: Please look up its IC50: CN1C(=O)C(NC(=O)Nc2cccc(S(=O)(=O)Nc3cnccn3)c2)N=C(C2CCCCC2)c2ccccc21 (racemic)
Resp: 6.8
